Data provenance is paper PMC9024338.

experiment: Preliminary pharmacokinetics in SD rats; assay type: in vivo; settings: male, SD, rat, plasma, po, 10 mg/kg, p.o. 10 mg/kg, 2 h; read-out: Concentration of BH in rat plasma, Mean
Endpoint Label: concentration at 2 h (ng/mL)
Report only the number, with the unit ng/mL understood.

Problem: Return concentration at 2 h (reported value) for this compound: CC1=CC(=O)[C@@H](O)[C@]2(C)[C@H]3[C@@H](O)[C@H](O)[C@@]4(CO)OC[C@@]35[C@@H](C[C@@H]12)OC(=O)[C@H](O)[C@]54O
Solution: 123

###

test: Preliminary pharmacokinetics in SD rats; type: in vivo; details: male, SD, rat, plasma, iv, 2 mg/kg, i.v. 2 mg/kg, 2 h; read-out: Concentration of BH in rat plasma, Mean
Endpoint Label: concentration at 2 h (ng/mL)
Form entry: value (ng/mL) — number only.

Problem: Provide only the value of recorded concentration at 2 h for CC1=CC(=O)[C@@H](O)[C@]2(C)[C@H]3[C@@H](O)[C@H](O)[C@@]4(CO)OC[C@@]35[C@@H](C[C@@H]12)OC(=O)[C@H](O)[C@]54O
Solution: 99.1

###

assay: Preliminary pharmacokinetics in SD rats; format: in vivo; details: male, SD, rat, plasma, po, 10 mg/kg, p.o. 10 mg/kg, 4 h; read-out: Concentration of BH in rat plasma, individual rats No1-No3
Endpoint Label: concentration at 4 h
Output should be the measured figure followed by the unit it is expressed in.

Problem: Tell me concentration at 4 h reported for CC1=CC(=O)[C@@H](O)[C@]2(C)[C@H]3[C@@H](O)[C@H](O)[C@@]4(CO)OC[C@@]35[C@@H](C[C@@H]12)OC(=O)[C@H](O)[C@]54O [BH, Bruceine H]
Solution: 115 ng/mL

###

test: Preliminary pharmacokinetics in SD rats; assay type: in vivo; details: male, SD, rat, plasma, iv, 2 mg/kg, i.v. 2 mg/kg, 0.5 h; read-out: Concentration of BH in rat plasma, individual rats No1-No3
Endpoint Label: concentration at 0.5 h (ng/mL)
Please respond with the number in ng/mL and leave the unit unwritten.

Problem: Fill in reported concentration at 0.5 h for this entry: CC1=CC(=O)[C@@H](O)[C@]2(C)[C@H]3[C@@H](O)[C@H](O)[C@@]4(CO)OC[C@@]35[C@@H](C[C@@H]12)OC(=O)[C@H](O)[C@]54O [BH, Bruceine H]
Solution: 228

###

assay: Preliminary pharmacokinetics in SD rats; type: in vivo; details: male, SD, rat, plasma, iv, 2 mg/kg, rat, i.v.; read-out: t1/2z, Mean (converted)
Endpoint Label: half-life (h)
Only the number, expressed in h, is required.

Problem: Look up and report measured half-life for this entry: CC1=CC(=O)[C@@H](O)[C@]2(C)[C@H]3[C@@H](O)[C@H](O)[C@@]4(CO)OC[C@@]35[C@@H](C[C@@H]12)OC(=O)[C@H](O)[C@]54O [BH, Bruceine H]
Solution: 9.69

###

test: Preliminary pharmacokinetics in SD rats; type: in vivo; conditions: male, SD, rat, plasma, iv, 2 mg/kg, i.v. 2 mg/kg, 10 min; read-out: Concentration of BH in rat plasma, Mean
Endpoint Label: concentration at 10 min (ng/mL)
Write it as a number; the unit ng/mL goes unstated.

Problem: // Input: CC1=CC(=O)[C@@H](O)[C@]2(C)[C@H]3[C@@H](O)[C@H](O)[C@@]4(CO)OC[C@@]35[C@@H](C[C@@H]12)OC(=O)[C@H](O)[C@]54O . Output its concentration at 10 min only.
Solution: 442

###

assay: Preliminary pharmacokinetics in SD rats; assay type: in vivo; conditions: male, SD, rat, plasma, po, 10 mg/kg, rat, p.o.; read-out: AUC (0-t), individual rats No1-No3
Endpoint Label: AUC(0-t) (ng·h/mL)
Answer format: numeric, ng·h/mL implied, no suffix.

Problem: Tell me AUC(0-t) reported for CC1=CC(=O)[C@@H](O)[C@]2(C)[C@H]3[C@@H](O)[C@H](O)[C@@]4(CO)OC[C@@]35[C@@H](C[C@@H]12)OC(=O)[C@H](O)[C@]54O
Solution: 1070

###

experiment: Preliminary pharmacokinetics in SD rats; assay type: in vivo; conditions: male, SD, rat, plasma, iv, 2 mg/kg, i.v. 2 mg/kg, 0.75 h; read-out: Concentration of BH in rat plasma, Mean
Endpoint Label: concentration at 0.75 h (ng/mL)
Number only, in ng/mL; omit the unit.

Problem: Tell me its concentration at 0.75 h given CC1=CC(=O)[C@@H](O)[C@]2(C)[C@H]3[C@@H](O)[C@H](O)[C@@]4(CO)OC[C@@]35[C@@H](C[C@@H]12)OC(=O)[C@H](O)[C@]54O as the entry.
Solution: 177

###

assay: Preliminary pharmacokinetics in SD rats; type: in vivo; details: male, SD, rat, plasma, po, 10 mg/kg, p.o. 10 mg/kg, 0.5 h; read-out: Concentration of BH in rat plasma, individual rats No1-No3
Endpoint Label: concentration at 0.5 h
Write the numeric value and append its unit.

Problem: Tell me measured concentration at 0.5 h for CC1=CC(=O)[C@@H](O)[C@]2(C)[C@H]3[C@@H](O)[C@H](O)[C@@]4(CO)OC[C@@]35[C@@H](C[C@@H]12)OC(=O)[C@H](O)[C@]54O please.
Solution: 68.4 ng/mL

###

test: Preliminary pharmacokinetics in SD rats; format: in vivo; conditions: male, SD, rat, plasma, iv, 2 mg/kg, i.v. 2 mg/kg, 0.75 h; read-out: Concentration of BH in rat plasma, individual rats No1-No3
Endpoint Label: concentration at 0.75 h (ng/mL)
Give the value, in units of ng/mL, as a plain number.

Problem: Report measured concentration at 0.75 h; entry is CC1=CC(=O)[C@@H](O)[C@]2(C)[C@H]3[C@@H](O)[C@H](O)[C@@]4(CO)OC[C@@]35[C@@H](C[C@@H]12)OC(=O)[C@H](O)[C@]54O
Solution: 172

###

test: Preliminary pharmacokinetics in SD rats; assay type: in vivo; conditions: male, Sprague-Dawley (SD), rat, plasma, iv, 2 mg/kg, rat, i.v.; read-out: AUC (0-∞), Mean
Endpoint Label: AUC(0-inf) (ng·h/mL)
Number only, in ng·h/mL; omit the unit.

Problem: Output AUC(0-inf) of CC1=CC(=O)[C@@H](O)[C@]2(C)[C@H]3[C@@H](O)[C@H](O)[C@@]4(CO)OC[C@@]35[C@@H](C[C@@H]12)OC(=O)[C@H](O)[C@]54O
Solution: 1050

###

experiment: Preliminary pharmacokinetics in SD rats; format: in vivo; conditions: male, SD, rat, plasma, iv, 2 mg/kg, i.v. 2 mg/kg, 10 min; read-out: Concentration of BH in rat plasma, individual rats No1-No3
Endpoint Label: concentration at 10 min (ng/mL)
# number only, unit ng/mL dropped from output

Problem: Read the entry CC1=CC(=O)[C@@H](O)[C@]2(C)[C@H]3[C@@H](O)[C@H](O)[C@@]4(CO)OC[C@@]35[C@@H](C[C@@H]12)OC(=O)[C@H](O)[C@]54O [BH, Bruceine H] and write its reported concentration at 10 min.
Solution: 420

###

experiment: Preliminary pharmacokinetics in SD rats; assay type: in vivo; settings: male, SD, rat, plasma, po, 10 mg/kg, p.o. 10 mg/kg, 8 h; read-out: Concentration of BH in rat plasma, individual rats No1-No3
Endpoint Label: concentration at 8 h (ng/mL)
Please reply with the bare figure in ng/mL and do not write the unit itself.

Problem: Please supply the value of reported concentration at 8 h for the item CC1=CC(=O)[C@@H](O)[C@]2(C)[C@H]3[C@@H](O)[C@H](O)[C@@]4(CO)OC[C@@]35[C@@H](C[C@@H]12)OC(=O)[C@H](O)[C@]54O
Solution: 50.4

###

experiment: Preliminary pharmacokinetics in SD rats; format: in vivo; conditions: male, SD, rat, plasma, po, 10 mg/kg, rat, p.o.; read-out: AUC (0-t), Mean
Endpoint Label: AUC(0-t)
Please state the value followed by its unit.

Problem: Provide measured AUC(0-t) value, entry: CC1=CC(=O)[C@@H](O)[C@]2(C)[C@H]3[C@@H](O)[C@H](O)[C@@]4(CO)OC[C@@]35[C@@H](C[C@@H]12)OC(=O)[C@H](O)[C@]54O [BH, Bruceine H]
Solution: 961 ng·h/mL

###

assay: Preliminary pharmacokinetics in SD rats; assay type: in vivo; conditions: male, Sprague-Dawley (SD), rat, plasma, po, 10 mg/kg, rat, p.o.; read-out: MRT (0-t), individual rats No1-No3
Endpoint Label: MRT last (h)
# output: bare number, implied unit h

Problem: Let me know recorded MRT last for CC1=CC(=O)[C@@H](O)[C@]2(C)[C@H]3[C@@H](O)[C@H](O)[C@@]4(CO)OC[C@@]35[C@@H](C[C@@H]12)OC(=O)[C@H](O)[C@]54O , thanks.
Solution: 5.47
